src = patent US8420336B2

Target: glutamate binding site of NMDA receptors
Assay: Binding test for test drug to glutamate binding site of NMDA receptors ([3H]CGP-39653 competition)
Conditions: labeled ligand of the assay; listed among the conditions
Procedure: 20 mg of a test drug (TJ-54 or an extract of the constituent crude drug) was weighed. […] After completion of the incubation, the mixture was filtered through a glass fiber filter (Whatman 1821-915 GF/B, Whatman) using a cell harvester (Brandel MLR-48, Skatron micro-96, Perkin Elmer), and the filter was washed 3 to 6 times with 50 mM Tris-HCl buffer. Then, the radioactivity of [^3H]CGP-39653 on the glass fiber filter was measured using a liquid scintillation counter (Wallac Counter, Perkin Elmer). […]
Metric name: Kd (nM)
Please state the figure in nM; there is no need to write the unit.

Exam item: Look up Kd of CCCC(=CC(N)C(=O)O)CP(=O)(O)O (stereo not shown) [[^3H]CGP-39653] and report it.
Marked response: 19

* * *

biological target: human recombinant mGluR5 (Homo sapiens); experiment: Binding test for test drug to metabotropic glutamate receptor mGluR5 ([3H]quisqualic acid competition); settings: labeled ligand of the assay; listed among the conditions
Sequence (P41594 21-1212): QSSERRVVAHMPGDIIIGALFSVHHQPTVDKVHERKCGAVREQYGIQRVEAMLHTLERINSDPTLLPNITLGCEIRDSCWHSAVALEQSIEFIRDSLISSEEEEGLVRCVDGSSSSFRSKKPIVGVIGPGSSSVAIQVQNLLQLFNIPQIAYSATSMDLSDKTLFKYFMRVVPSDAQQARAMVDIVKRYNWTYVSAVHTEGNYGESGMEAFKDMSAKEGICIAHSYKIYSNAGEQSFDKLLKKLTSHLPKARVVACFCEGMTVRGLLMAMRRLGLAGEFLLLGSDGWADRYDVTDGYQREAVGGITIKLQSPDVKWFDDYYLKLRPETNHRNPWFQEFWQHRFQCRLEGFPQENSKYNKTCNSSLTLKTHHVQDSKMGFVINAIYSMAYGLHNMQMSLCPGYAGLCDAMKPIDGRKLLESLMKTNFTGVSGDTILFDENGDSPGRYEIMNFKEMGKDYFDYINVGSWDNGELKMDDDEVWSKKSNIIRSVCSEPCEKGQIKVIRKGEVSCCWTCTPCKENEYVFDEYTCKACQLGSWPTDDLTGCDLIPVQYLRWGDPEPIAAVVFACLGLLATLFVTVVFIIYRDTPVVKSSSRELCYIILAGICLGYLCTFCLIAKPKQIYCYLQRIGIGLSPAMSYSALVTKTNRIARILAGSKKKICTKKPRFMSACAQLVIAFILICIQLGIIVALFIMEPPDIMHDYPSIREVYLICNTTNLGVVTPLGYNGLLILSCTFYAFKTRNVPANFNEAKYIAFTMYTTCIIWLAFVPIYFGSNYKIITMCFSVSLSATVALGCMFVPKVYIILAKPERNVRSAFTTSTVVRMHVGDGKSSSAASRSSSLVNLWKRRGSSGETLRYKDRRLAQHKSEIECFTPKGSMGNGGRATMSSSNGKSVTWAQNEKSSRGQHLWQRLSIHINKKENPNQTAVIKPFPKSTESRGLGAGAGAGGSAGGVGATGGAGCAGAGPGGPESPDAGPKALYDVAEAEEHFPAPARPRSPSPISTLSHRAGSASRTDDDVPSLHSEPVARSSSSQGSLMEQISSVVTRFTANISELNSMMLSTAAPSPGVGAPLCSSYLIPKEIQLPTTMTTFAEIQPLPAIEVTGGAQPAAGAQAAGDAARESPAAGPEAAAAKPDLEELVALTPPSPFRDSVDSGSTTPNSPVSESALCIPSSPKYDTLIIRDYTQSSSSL
Metric name: Kd (nM)
Please state the figure in nM; there is no need to write the unit.

Exam item: Look up Kd of N[C@@H](Cn1oc(=O)[nH]c1=O)C(=O)O [[^3H]quisqualic acid, quisqualic acid] and report it.
Marked response: 26

* * *

molecular target: AMPA receptors; assay: Binding test for test drug to AMPA receptors ([3H]AMPA competition); parameters: species or system Wistar rat; settings: labeled ligand of the assay; Kd1; listed among the conditions; read-out: Kd (Kd1)
Metric name: pKd
Conceptually, pKd converts a concentration in mol/L into minus its log10.

Exam item: Look up pKd of Cc1onc(O)c1CC(N)C(=O)O (stereo not shown) [[^3H]AMPA] and report it.
Marked response: 7.74
